Consider compounds characterized by their pIC50 with Coagulation factor XI (Homo sapiens) (UniProt P03951).
Sequence (P03951 whole entry, looked up): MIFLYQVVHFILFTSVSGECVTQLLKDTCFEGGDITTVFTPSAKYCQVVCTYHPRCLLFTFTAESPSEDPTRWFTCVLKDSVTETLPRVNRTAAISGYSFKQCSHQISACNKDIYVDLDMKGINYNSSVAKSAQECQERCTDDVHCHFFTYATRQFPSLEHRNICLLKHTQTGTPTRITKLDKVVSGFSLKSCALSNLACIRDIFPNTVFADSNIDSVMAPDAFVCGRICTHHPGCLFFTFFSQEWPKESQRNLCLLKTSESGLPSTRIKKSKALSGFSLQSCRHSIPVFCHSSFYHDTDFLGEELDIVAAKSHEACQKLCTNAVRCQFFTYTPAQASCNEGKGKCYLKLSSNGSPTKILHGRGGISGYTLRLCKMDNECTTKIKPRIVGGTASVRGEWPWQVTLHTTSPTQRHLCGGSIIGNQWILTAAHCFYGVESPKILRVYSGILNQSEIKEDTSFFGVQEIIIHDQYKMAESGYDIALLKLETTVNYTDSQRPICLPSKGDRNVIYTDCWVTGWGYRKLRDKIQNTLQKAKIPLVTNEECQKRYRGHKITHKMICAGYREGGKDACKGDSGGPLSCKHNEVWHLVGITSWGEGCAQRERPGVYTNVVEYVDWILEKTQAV
Just the number, please; pIC50 means minus log10 of the concentration in mol/L.

>>> reported_value("O=C1Nc2ccc(Cl)c(F)c2[C@]2(CCN(c3cncc(C(=O)NCc4ccc(Cn5ccccc5=O)nc4)c3)C2)O1")
5.00

Continue with the compound presented below.
[in] Fill in the recorded pIC50 for this compound, with Coagulation factor XI (Homo sapiens) (UniProt P03951) as test system: C[C@H]1CCN(c2ccc(CNC(=O)c3cncc(N4CC[C@]5(C4)OC(=O)Nc4ccc(Cl)c(F)c45)n3)cn2)C1
[out] 5.00
